ASSAYED_TARGET: EBP-Ig (N-terminal 225 amino acids of the human EPO receptor joined to an Ig heavy chain) (Homo sapiens, UniProt P19235)
Construct: Ig heavy chain (fusion partner); made in house; host or cells: NSO cells (secreted into conditioned media)
Sequence (P19235 25-250 limits assumed): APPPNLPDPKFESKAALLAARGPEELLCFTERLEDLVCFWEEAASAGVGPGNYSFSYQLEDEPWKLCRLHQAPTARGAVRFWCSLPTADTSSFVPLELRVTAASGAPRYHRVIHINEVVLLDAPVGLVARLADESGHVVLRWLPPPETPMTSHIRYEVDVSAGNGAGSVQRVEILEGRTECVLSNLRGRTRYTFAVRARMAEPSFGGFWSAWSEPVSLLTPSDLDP
PROTOCOL_DETAILS: Inhibition of [125I]EPO binding to immobilized EBP-Ig (EPO binding protein-Ig), scintillation Flash plate competition assay
CONDITION_CONTEXT: Table 6; 50 μM
QUANTITY_MEASURED: EPO/EBP-Ig % inh @ 50 μM (%)
Answers are plain numbers, in %.

CC(C)(C)OC(=O)CCC(C(=O)O)N(C/C=C/c1ccc2ccccc2c1)C/C=C/c1ccc2ccccc2c1 (stereo not shown) : 14
CC(C)(C)OC(=O)CC(C(=O)OC(C)(C)C)N(CC=Cc1cccc(Oc2ccccc2)c1)CC=Cc1cccc(Oc2ccccc2)c1 (stereo not shown) : 20
CCOC(=O)CCC(C(=O)OC)N(C/C=C/c1ccccc1)C/C=C/c1ccccc1 (stereo not shown) : 25
CC(C)(C)OC(=O)CCC(C(=O)OC(C)(C)C)N(C/C=C/c1cccc(Oc2cccc(C(F)(F)F)c2)c1)C/C=C/c1cccc(Oc2cccc(C(F)(F)F)c2)c1 (stereo not shown) : 17
CC(C)(C)c1ccc(Oc2cccc(/C=C/CN(C/C=C/c3cccc(Oc4ccc(C(C)(C)C)cc4)c3)C(CCC(=O)O)C(=O)O)c2)cc1 (stereo not shown) : 78
COC(=O)C(CCC(=O)O)N(C/C=C/c1ccccc1)C/C=C/c1ccccc1 (stereo not shown) : 20

Working through the 2 compounds below one at a time, give EPO/EBP-Ig % inh @ 50 μM for each.
1. COC(=O)C(CCC(=O)OC(C)(C)C)N(C/C=C/c1cccc2ccccc12)C/C=C/c1cccc2ccccc12 (stereo not shown)
2. COC(=O)C(CCC(=O)OC(C)(C)C)N(C/C=C/c1ccccc1)C/C=C/c1ccccc1 (stereo not shown)

Result ::
[15, 20]

Working through the 2 compounds below one at a time, give EPO/EBP-Ig % inh @ 50 μM for each.
1. COC(=O)C(CCC(=O)O)N(C/C=C/c1cccc(Oc2ccc(Cl)c(Cl)c2)c1)C/C=C/c1cccc(Oc2ccc(Cl)c(Cl)c2)c1 (stereo not shown)
2. CC(C)(C)OC(=O)CCC(C(=O)OC(C)(C)C)N(C/C=C/c1cccc(Oc2ccc(C(C)(C)C)cc2)c1)C/C=C/c1cccc(Oc2ccc(C(C)(C)C)cc2)c1 (stereo not shown)

Result ::
[32, 5]

Reference for the values: patent US7153869B2
